# experimental system: human HDAC3/NcoR2 (Homo sapiens, UniProt O15379)
# Construct: human HDAC3 complex, full length with His C-terminal tag, MW=49.7 kDa; His (C)
# Sequence (O15379 whole entry): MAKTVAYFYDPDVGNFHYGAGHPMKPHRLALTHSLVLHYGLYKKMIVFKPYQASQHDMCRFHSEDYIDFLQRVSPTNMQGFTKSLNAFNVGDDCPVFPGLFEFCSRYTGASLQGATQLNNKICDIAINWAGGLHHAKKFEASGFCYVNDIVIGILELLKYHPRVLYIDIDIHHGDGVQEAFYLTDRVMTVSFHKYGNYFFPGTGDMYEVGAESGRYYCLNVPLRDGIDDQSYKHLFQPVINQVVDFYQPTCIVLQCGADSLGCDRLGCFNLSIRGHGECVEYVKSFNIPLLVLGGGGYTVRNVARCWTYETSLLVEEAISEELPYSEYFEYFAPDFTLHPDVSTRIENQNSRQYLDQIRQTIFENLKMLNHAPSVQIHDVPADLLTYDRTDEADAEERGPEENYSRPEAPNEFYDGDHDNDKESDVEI
# Sequence (Q9Y618 395-489 partner limits assumed): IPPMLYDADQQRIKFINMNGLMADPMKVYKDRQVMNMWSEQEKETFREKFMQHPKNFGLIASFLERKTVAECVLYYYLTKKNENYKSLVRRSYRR
# test summary: HDAC3 enzymatic activity assay (fluorogenic peptide)
# measurement context: 10-dose, 3-fold serial dilution, triplicate
Record form. Attribute: pIC50. Fill in for each entry.
Just so you know, pIC50 here is -log10 of the concentration in molar units; reply with that number alone.

pIC50 measured on C[C@H](CCC(=O)NCc1ccc(C(=O)NO)cc1)[C@H]1CC[C@H]2[C@@H]3[C@@H](O)C[C@@H]4C[C@H](O)CC[C@]4(C)[C@H]3CC[C@]12C [Compound Ia] = 5.08

pIC50 measured on C[C@H](CCC(=O)NCC(=O)NCc1ccc(C(=O)NO)cc1)[C@H]1CC[C@H]2[C@@H]3[C@@H](O)C[C@@H]4C[C@H](O)CC[C@]4(C)[C@H]3CC[C@]12C [Ib] = 5.00
